# System: HeLa Kyoto;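 further: HeLa Kyoto cells arrested at G1/S by double thymidine block, proteins quantified by TMT10plex mass spectrometry in mild NP-40 versus SDS extracts, three biological replicates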
# METHOD_SUMMARY: solubility in G1/S (NP-40 vs SDS abundance) (log2 ratio); higher = more soluble
# ASSAY_SETUP: cell cycle stage: G1/S
RECORDED_METRIC: solubility in G1/S (log2)
Give bare numbers.

Q. Looking for the measured solubility in G1/S (log2) of MPGPAAGSRARVYAEVNSLRSREYWDYEAHVPSWGNQDDYQLVRKLGRGKYSEVFEAINITNNERVVVKILKPVKKKKIKREVKILENLRGGTNIIKLIDTVKDPVSKTPALVFEYINNTDFKQLYQILTDFDIRFYMYELLKALDYCHSKGIMHRDVKPHNVMIDHQQKKLRLIDWGLAEFYHPAQEYNVRVASRYFKGPELLVDYQMYDYSLDMWSLGCMLASMIFRREPFFHGQDNYDQLVRIAKVLGTEELYGYLKKYHIDLDPHFNDILGQHSRKRWENFIHSENRHLVSPEALDLLDKLLRYDHQQRLTAKEAMEHPYFYPVVKEQSQPCADNAVLSSGLTAAR [CSNK2A2] , can you help?
A. -0.244
